target: affinity purified β2GPI-dependent antiphospholipid antibody; assay: Competitive inhibition ELISA: recombinant β2GPI proteins compete for antibody binding to coated full length recombinant β2GPI; parameters: species or system human; details: Ab 7015; read-out: 50% (concentration to give 50% inhibition)
pIC50: −log10 of the molar value.
In this section we review reported pIC50 values for a set of molecules.

Molecule	pIC50
123--: recombinant β2GPI deletion mutant with domains 1, 2, 3 (protein) GRTCPKPDDLPFSTVVPLKTFYEPGEEITYSCKPGYVSRGGMRKFICPLTGLWPINTLKCTPRVCPFAGILENGAVRYTTFEYPNTISFSCNTGFYLNGADSAKCTEEGKWSPELPVCAPIICPPPSIPTFATLRVYKPSAGNNSLYRDTAVFECLPQHAMFGNDTITCTTHGNWTKLPECGHHHHHH	6.15
---45: recombinant β2GPI deletion mutant with domains 4, 5 (protein) GREVKCPFPSRPDNGFVNYPAKPTLYYKDKATFGCHDGYSLDGPEEIECTKLGNWSAMPSCKASCKLPVKKATVVYQGERVKIQEKFKNGMLHGDKVSFFCKNKEKKCSYTEDAQCIDGTIEVPKCFKEHSSLAFWKTDASDVKPCGHHHHHH	< 4.40
-2345: recombinant β2GPI deletion mutant with domains 2-5 (protein) GRTPRVCPFAGILENGAVRYTTFEYPNTISFSCNTGFYLNGADSAKCTEEGKWSPELPVCAPIICPPPSIPTFATLRVYKPSAGNNSLYRDTAVFECLPQHAMFGNDTITCTTHGNWTKLPECREVKCPFPSRPDNGFVNYPAKPTLYYKDKATFGCHDGYSLDGPEEIECTKLGNWSAMPSCKASCKLPVKKATVVYQGERVKIQEKFKNGMLHGDKVSFFCKNKEKKCSYTEDAQCIDGTIEVPKCFKEHSSLAFWKTDASDVKPCGHHHHHH	< 4.24
recombinant β2GPI domain 5 with GlyHis6 (----5) (protein) GRASCKLPVKKATVVYQGERVKIQEKFKNGMLHGDKVSFFCKNKEKKCSYTEDAQCIDGTIEVPKCFKEHSSLAFWKTDASDVKPCGHHHHHH	< 4.33
